Reported values of viability, T/C for individual entries
# Test system: K24384-001-R-PDC complex spheroid viability
# protocol: Anticancer human tumor K24384-001-R-PDC patient-derived pancreatic adenocarcinoma cell line growth inhibition
# particulars: second compound 0.1 µM; first compound 1 µM; hits give low values

[
  {
    "compound": "CC1COCCN1c1cc(-c2ccnn2C)c2ccnc(-c3ccn[nH]3)c2n1 (configuration not stated) + NC1CC1c1ccc(-c2cccc(O)c2)cc1",
    "viability, T/C (%)": 38
  },
  {
    "compound": "COc1ccc([C@@H](O)c2cc(-c3ncnc4cc(N5CCOCC5)ccc34)c(F)cc2Cl)nn1 + NC1CCC(NC2CC2c2ccccc2)CC1",
    "viability, T/C (%)": 49
  },
  {
    "compound": "O=C(C=Cn1cnc(-c2cc(C(F)(F)F)cc(C(F)(F)F)c2)n1)NNc1cnccn1 + NC1CC1c1ccc(-c2cccc(O)c2)cc1",
    "viability, T/C (%)": 20.6
  },
  {
    "compound": "CC1COCCN1c1cc(C2(S(C)(=N)=O)CC2)nc(-c2ccnc3[nH]ccc23)n1 (configuration not stated) + NC1CC1c1ccc(-c2cccc(O)c2)cc1",
    "viability, T/C (%)": 58.8
  },
  {
    "compound": "Nc1ncn(C2CC(O)C(CO)O2)c(=O)n1 (configuration not stated) + NC1CC1c1ccc(-c2cccc(O)c2)cc1",
    "viability, T/C (%)": 79
  },
  {
    "compound": "Nc1ncn(C2CC(O)C(CO)O2)c(=O)n1 (configuration not stated) + NC1CCC(NC2CC2c2ccccc2)CC1",
    "viability, T/C (%)": 73.5
  },
  {
    "compound": "CC1COCCN1c1cc(C2(S(C)(=N)=O)CC2)nc(-c2ccnc3[nH]ccc23)n1 (configuration not stated) + NC1CCC(NC2CC2c2ccccc2)CC1",
    "viability, T/C (%)": 71.5
  }
]

====

# Test system: K24384-001-R-PDC complex spheroid viability
# protocol: Anticancer human tumor K24384-001-R-PDC cell line growth inhibition;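 also: spheroids exposed to agents for seven days before luminescence viability reading; 100% = DMSO vehicle control viability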
# particulars: second compound 0.1 µM; first compound 0.000949 µM; hits give low values
Reported viability, T/C by item:
readoutName: viability, T/C (%)

[
  {
    "molecule": "CCc1c2c(nc3ccc(O)cc13)-c1cc3c(c(=O)n1C2)COC(=O)[C@]3(O)CC + NC1CC1c1ccc(-c2cccc(O)c2)cc1",
    "valueUnits": "%",
    "numericResult": 38.8
  },
  {
    "molecule": "Nc1ccn(C2OC(CO)C(O)C2(F)F)c(=O)n1 (stereo unspecified) + NC1CCC(NC2CC2c2ccccc2)CC1",
    "valueUnits": "%",
    "numericResult": 77.4
  },
  {
    "molecule": "Nc1ccn(C2OC(CO)C(O)C2(F)F)c(=O)n1 (stereo unspecified) + NC1CC1c1ccc(-c2cccc(O)c2)cc1",
    "valueUnits": "%",
    "numericResult": 82.5
  },
  {
    "molecule": "Nc1ncn(C2CC(O)C(CO)S2)c(=O)n1 (stereo unspecified) + NC1CCC(NC2CC2c2ccccc2)CC1",
    "valueUnits": "%",
    "numericResult": 92.8
  },
  {
    "molecule": "Nc1ncn(C2CC(O)C(CO)S2)c(=O)n1 (stereo unspecified) + NC1CC1c1ccc(-c2cccc(O)c2)cc1",
    "valueUnits": "%",
    "numericResult": 102
  },
  {
    "molecule": "CCc1c2c(nc3ccc(O)cc13)-c1cc3c(c(=O)n1C2)COC(=O)[C@]3(O)CC + NC1CCC(NC2CC2c2ccccc2)CC1",
    "valueUnits": "%",
    "numericResult": 46.4
  }
]
